- Target Or Test System: gpH2R (atrium) (Cavia porcellus, UniProt P47747)
- Sequence (P47747 whole entry): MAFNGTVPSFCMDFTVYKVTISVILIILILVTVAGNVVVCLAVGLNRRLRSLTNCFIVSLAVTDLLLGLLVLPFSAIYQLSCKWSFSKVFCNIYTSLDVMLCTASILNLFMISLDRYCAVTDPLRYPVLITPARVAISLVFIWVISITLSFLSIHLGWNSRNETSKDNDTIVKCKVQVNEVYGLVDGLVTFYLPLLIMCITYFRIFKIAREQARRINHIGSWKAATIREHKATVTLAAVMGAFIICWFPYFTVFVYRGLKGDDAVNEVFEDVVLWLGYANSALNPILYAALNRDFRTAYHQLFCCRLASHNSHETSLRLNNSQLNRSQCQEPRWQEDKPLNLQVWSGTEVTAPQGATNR
- Test: Organ bath study on isolated guinea pig right atrium
- Conditions Used: maximal response relative to maximal increase in heart rate induced by histamine (Emax=1.00)
Mark 0.0 for Emax gpH2R values under 0.9, and 1.0 for everything at or above.

Record excerpt, results attached:
Inquiry: Threshold query (Emax gpH2R >= 0.9) on `NC(=S)NCCCc1c[nH]cn1`
Reply text: 0.0

Inquiry: Threshold query (Emax gpH2R >= 0.9) on `N=C(NCCCCNC(N)=O)NCCCc1c[nH]cn1`
Reply text: 1.0

Inquiry: Threshold query (Emax gpH2R >= 0.9) on `N=C(N)NCCCCCCNC(=N)NCCCc1c[nH]cn1`
Reply text: 1.0

More entries:
Inquiry: Threshold query (Emax gpH2R >= 0.9) on `N=C(N)NCCCCCCCCCCCCNC(=N)NCCCc1cnc(N)s1`
Reply text: 0.0

Inquiry: Threshold query (Emax gpH2R >= 0.9) on `N=C(N)NCCCCCCCCCCNC(=N)NCCCc1c[nH]cn1`
Reply text: 0.0

Inquiry: Threshold query (Emax gpH2R >= 0.9) on `N=C(NCCCCCCCCCCN)NCCCc1c[nH]cn1`
Reply text: 0.0

Inquiry: Threshold query (Emax gpH2R >= 0.9) on `N=C(NCCCCCCN)NCCCc1c[nH]cn1`
Reply text: 0.0

Inquiry: Threshold query (Emax gpH2R >= 0.9) on `N=C(NCCCCN)NCCCc1c[nH]cn1`
Reply text: 0.0

* * *

The reader will find reported pEC50 values listed item by item below.
- Target Or Test System: gpH2R (atrium) (Cavia porcellus, UniProt P47747)
- Test: Organ bath study on isolated guinea pig right atrium
The value called pEC50 is obtained by taking minus log10 of the concentration in mol/L.

Inquiry: May I ask what pEC50 has been recorded for O=C(NCCCc1c[nH]cn1)NC(=O)c1ccccc1 [compound 144] ?
Reply text: 4.62

Inquiry: May I ask what pEC50 has been recorded for Cc1nc(N)sc1CCCNC(=N)NCCCCCCCCCCCCN [compound 121] ?
Reply text: 6.49

Inquiry: May I ask what pEC50 has been recorded for N=C(N)NCCCCCCNC(=N)NCCCc1c[nH]cn1 [compound 124] ?
Reply text: 7.67

Inquiry: May I ask what pEC50 has been recorded for N=C(N)NCCCCCCCCCCNC(=N)NCCCc1c[nH]cn1 [compound 126] ?
Reply text: 7.56

Inquiry: May I ask what pEC50 has been recorded for NC(=S)NCCCc1c[nH]cn1 [compound 142] ?
Reply text: 4.96

More entries:
Inquiry: May I ask what pEC50 has been recorded for N=C(NCCCCCCCCCCN)NCCCc1c[nH]cn1 [compound 119] ?
Reply text: 6.41

Inquiry: May I ask what pEC50 has been recorded for N=C(NCCCCCCCCCCNC(N)=O)NCCCc1c[nH]cn1 [compound 136] ?
Reply text: 6.53

Inquiry: May I ask what pEC50 has been recorded for N=C(NCCCN)NCCCc1c[nH]cn1 [compound 115] ?
Reply text: 5.33

* * *

- Target Or Test System: gpH2R (atrium) (Cavia porcellus)
- Test: Organ bath study on isolated guinea pig right atrium
The reader will find reported log10(EC50) values listed item by item below.
Recall that a logarithmic scale is used here: each number is log10 of EC50 in nM.

# example entries with known answers
Inquiry: Hi! What's the reported log10(EC50) for `N=C(NCCCCCCCCNC(N)=O)NCCCc1c[nH]cn1` on gpH2R (atrium) (Cavia porcellus)?
Reply text: 2.26

Inquiry: Hi! What's the reported log10(EC50) for `Cc1nc(N)sc1CCCNC(=N)NCCCCCCCCNC(=N)N` on gpH2R (atrium) (Cavia porcellus)?
Reply text: 2.13

Inquiry: Hi! What's the reported log10(EC50) for `N=C(NCCCCCCCCCCCCN)NCCCc1c[nH]cn1` on gpH2R (atrium) (Cavia porcellus)?
Reply text: 2.14

More entries:
Inquiry: Hi! What's the reported log10(EC50) for `Cc1nc(N)sc1CCCNC(=N)NCCCCCCCCCCCCNC(=N)N` on gpH2R (atrium) (Cavia porcellus)?
Reply text: 1.98

Inquiry: Hi! What's the reported log10(EC50) for `O=C(NC(=S)NCCCc1c[nH]cn1)c1ccccc1` on gpH2R (atrium) (Cavia porcellus)?
Reply text: 4.27
